- assay-target: MRGPRX2 (Homo sapiens)
- Sequence (Q96LB1 whole entry): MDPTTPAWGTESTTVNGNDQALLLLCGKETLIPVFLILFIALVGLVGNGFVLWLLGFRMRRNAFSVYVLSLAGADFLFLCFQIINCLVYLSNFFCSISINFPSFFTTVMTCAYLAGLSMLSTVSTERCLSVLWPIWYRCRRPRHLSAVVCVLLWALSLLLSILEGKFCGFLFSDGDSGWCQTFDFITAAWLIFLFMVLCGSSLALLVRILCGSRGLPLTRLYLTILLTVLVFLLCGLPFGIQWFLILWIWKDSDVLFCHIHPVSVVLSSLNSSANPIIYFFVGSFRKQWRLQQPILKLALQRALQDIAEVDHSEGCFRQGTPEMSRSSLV
- test-name: potency comparison of separated isomers (assay not stated)
- assay-setup: compared with the other separated diastereomer/enantiomer
quantity: relative potency of the separated isomer

Would you please look over these solved cases?
{"compound": "CC(CNc1cc(C(F)(F)F)nc2cc(C(F)(F)F)nn12)(c1ccc(F)cc1)C1CCN(C(=O)NCCO)C1 (single isomer, unassigned)", "assay-target": "MRGPRX2 (Homo sapiens)", "quantity": "relative potency of the separated isomer", "recorded-result": "more potent"}
{"compound": "CC1(O)CN(C(CNc2cc(C(F)(F)F)nc3cc(C(F)(F)F)nn23)c2ccc(F)cc2)C1 (single isomer, unassigned)", "assay-target": "MRGPRX2 (Homo sapiens)", "quantity": "relative potency of the separated isomer", "recorded-result": "active"}
{"compound": "CC(CNc1cc(C(F)(F)F)nc2cc(C(F)(F)F)nn12)(c1ccc(F)cc1)C1CCN(CC(N)=O)C1 (single isomer, unassigned)", "assay-target": "MRGPRX2 (Homo sapiens)", "quantity": "relative potency of the separated isomer", "recorded-result": "more potent"}
{"compound": "O=C1NCC2(CN(C(CNc3cc(C(F)(F)F)nc4cc(C(F)(F)F)nn34)c3ccc(F)cc3)C2)N1 (single isomer, unassigned)", "assay-target": "MRGPRX2 (Homo sapiens)", "quantity": "relative potency of the separated isomer", "recorded-result": "active"}
{"compound": "[2H]C([2H])([2H])NC(=O)C1CN(C(CNc2cc(C(F)(F)F)nc3cc(C(F)(F)F)nn23)c2ccc(F)cc2)C1 (single isomer, unassigned)", "assay-target": "MRGPRX2 (Homo sapiens)", "quantity": "relative potency of the separated isomer", "recorded-result": "more potent"}
{"compound": "O=C1CC2(CN1)CN(C(CNc1cc(C(F)(F)F)nc3cc(C(F)(F)F)nn13)c1ccc(F)cc1)C2 (single isomer, unassigned)", "assay-target": "MRGPRX2 (Homo sapiens)", "quantity": "relative potency of the separated isomer", "recorded-result": "active"}
{"compound": "O=C1NC2(CCO1)CN(C(CNc1cc(C(F)(F)F)nc3cc(C(F)(F)F)nn13)c1ccc(F)cc1)C2 (single isomer, unassigned)", "assay-target": "MRGPRX2 (Homo sapiens)", "quantity": "relative potency of the separated isomer", "recorded-result": "more potent"}

// next item, relative potency of the separated isomer requested
Prompt: Record request: relative potency of the separated isomer value, item NC(=O)N1CCC(C(CNc2cc(C(F)(F)F)nc3cc(C(F)(F)F)nn23)c2ccc(F)cc2)C1 (single isomer, unassigned)
Response: more potent
